test: DPPH scavenging assay; format: physicochemical; settings: DPPH free radical
The entries below are paired with their reported IC50.

compound	experimentalValue
C=Cc1c(C)c2cc3nc(c4c5[nH]c(cc6nc(cc1[nH]2)C(C)=C6CC)c(C)c5C(=O)[C@@H]4C(=O)OC)[C@@H](CCC(=O)OC/C=C(\C)CCC[C@H](C)CCC[C@H](C)CCCC(C)C)[C@@H]3C [chlorophyll a, reference compound]	~265 µM
C=Cc1c(C)c2cc3nc(c4c5[nH]c(cc6nc(cc1[nH]2)C(C=O)=C6CC)c(C)c5C(=O)C4C(=O)OC)C(CCC(=O)OCC=C(C)CCCC(C)CCCC(C)CCCC(C)C)C3C (centres unmarked) [Compound 6]	~120 µM
C=Cc1c(C)c2cc3nc(c4c5[nH]c(cc6nc(cc1[nH]2)C(C)=C6CC)c(C)c5C(=O)[C@@H]4C(=O)OC)[C@@H](CCC(=O)O)[C@@H]3C [Compound 3]	~40 µM
C=Cc1c(C)c2cc3nc(c4c5[nH]c(cc6nc(cc1[nH]2)C(C=O)=C6CC)c(C)c5C(=O)[C@@H]4C(=O)OC)[C@@H](CCC(=O)OC/C=C(\C)CCC[C@H](C)CCC[C@H](C)CCCC(C)C)[C@@H]3C [chlorophyll b, reference compound]	~200 µM
C=Cc1c(C)c2cc3nc(c4c5[nH]c(cc6nc(cc1[nH]2)C(C=O)=C6CC)c(C)c5C(=O)[C@@H]4C(=O)OC)[C@@H](CCC(=O)O)[C@@H]3C [Compound 2]	~535 µM

Query: Give the measured IC50 of C=Cc1c(C)c2cc3nc(c4c5[nH]c(cc6nc(cc1[nH]2)C(C=O)=C6CC)c(C)c5C(=O)[C@@H]4C(=O)OC)[C@@H](CCC(=O)O)[C@@H]3C [Compound 4] .
Response: ~28 µM

Query: Repeat for the following compound: C=Cc1c(C)c2cc3nc(c4c5[nH]c(cc6nc(cc1[nH]2)C(C)=C6CC)c(C)c5C(=O)[C@@H]4C(=O)OC)[C@@H](CCC(=O)O)[C@@H]3C [Compound 1]
Response: > 700 µM

Query: Repeat for the following compound: C=Cc1c(C)c2cc3nc(c4c5[nH]c(cc6nc(cc1[nH]2)C(C)=C6CC)c(C)c5C(=O)C4C(=O)OC)C(CCC(=O)OCC=C(C)CCCC(C)CCCC(C)CCCC(C)C)C3C (centres unmarked) [Compound 5]
Response: ~160 µM

* * *

Test system: human low density lipoprotein (LDL)
Assay: LDL measurement assay (MDA formation during LDL peroxidation)
Type: biochemical
Method: The biological activities (e.g., antioxidative activities) of tetrapyrrole compounds described above can be evaluated by a number of assays. […] In another example, an antioxidative activity of a test compound is evaluated by determining the compound's ability to scavenge the free radicals of ? -diphenyl- ? -picrylhydrazyl (DPPH), or to scavenge superoxide anion, or to chelate Fe2+ cation, or to reduce power. […]
propertyName: pIC50
In plain terms, pIC50 is the concentration in mol/L turned into minus its base-10 logarithm.

Worked examples, 5 molecules total:
molecule	targetOrSystem	pIC50
C=Cc1c(C)c2cc3nc(c4c5[nH]c(cc6nc(cc1[nH]2)C(C=O)=C6CC)c(C)c5C(=O)[C@@H]4C(=O)OC)[C@@H](CCC(=O)O)[C@@H]3C [Compound 4]	human low density lipoprotein (LDL)	4.70
C=Cc1c(C)c2cc3nc(c4c5[nH]c(cc6nc(cc1[nH]2)C(C=O)=C6CC)c(C)c5C(=O)C4C(=O)OC)C(CCC(=O)OCC=C(C)CCCC(C)CCCC(C)CCCC(C)C)C3C (stereo not drawn) [Compound 6]	human low density lipoprotein (LDL)	4.27
C=Cc1c(C)c2cc3nc(c4c5[nH]c(cc6nc(cc1[nH]2)C(C=O)=C6CC)c(C)c5C(=O)[C@@H]4C(=O)OC)[C@@H](CCC(=O)O)[C@@H]3C [Compound 2]	human low density lipoprotein (LDL)	4.38
C=Cc1c(C)c2cc3nc(c4c5[nH]c(cc6nc(cc1[nH]2)C(C)=C6CC)c(C)c5C(=O)C4C(=O)OC)C(CCC(=O)OCC=C(C)CCCC(C)CCCC(C)CCCC(C)C)C3C (stereo not drawn) [Compound 5]	human low density lipoprotein (LDL)	4.77
C=Cc1c(C)c2cc3nc(c4c5[nH]c(cc6nc(cc1[nH]2)C(C=O)=C6CC)c(C)c5C(=O)[C@@H]4C(=O)OC)[C@@H](CCC(=O)OC/C=C(\C)CCC[C@H](C)CCC[C@H](C)CCCC(C)C)[C@@H]3C [chlorophyll b, reference compound]	human low density lipoprotein (LDL)	4.59

Query: Identify the measured pIC50 of C=Cc1c(C)c2cc3nc(c4c5[nH]c(cc6nc(cc1[nH]2)C(C)=C6CC)c(C)c5C(=O)[C@@H]4C(=O)OC)[C@@H](CCC(=O)OC/C=C(\C)CCC[C@H](C)CCC[C@H](C)CCCC(C)C)[C@@H]3C [chlorophyll a, reference compound] for human low density lipoprotein (LDL).
Response: 5.30

Query: Repeat for the following molecule: C=Cc1c(C)c2cc3nc(c4c5[nH]c(cc6nc(cc1[nH]2)C(C)=C6CC)c(C)c5C(=O)[C@@H]4C(=O)OC)[C@@H](CCC(=O)O)[C@@H]3C [Compound 3]
Response: 4.68

Query: Repeat for the following molecule: C=Cc1c(C)c2cc3nc(c4c5[nH]c(cc6nc(cc1[nH]2)C(C)=C6CC)c(C)c5C(=O)[C@@H]4C(=O)OC)[C@@H](CCC(=O)O)[C@@H]3C [Compound 1]
Response: 5.00
